Measured values drawn from paper PMC8184751 for this set.

System under test: T1, prolyl isomerase PPIA (human, UniProt P62937 2-164)
T1 construct: human PPIA (peptidyl-prolyl cis-trans isomerase A, cyclophilin A); gene cloned into a modified pET28a vector; 15N-labeled for the NMR titrations, unlabeled for ITC, crystallography and folding assays; source: E. coli BL21(DE3), purified (Ni-NTA, TEV cleavage, Superdex 75); 15N-labeled in M9 minimal media for NMR
T1 sequence (P62937 2-164): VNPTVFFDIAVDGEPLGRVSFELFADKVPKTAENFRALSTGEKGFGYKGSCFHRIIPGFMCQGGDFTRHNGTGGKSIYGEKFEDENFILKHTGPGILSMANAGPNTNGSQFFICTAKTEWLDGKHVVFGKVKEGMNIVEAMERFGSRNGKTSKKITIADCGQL
Experiment notes: NMR titration; 40 µM 15N-labeled PPIA titrated with GP20 or AP20 up to 3200 µM; 1H-15N HSQC at 298 K; 25 mM HEPES, 100 mM NaCl, 2 mM DTT, pH 7.4; Kd from chemical shift perturbations (equation for fast exchange)
Details: both partners purified
Reported endpoint: Kd (µM)
Please respond with the number in µM and leave the unit unwritten.

Query: If you can, please state the reported Kd value of Ac-GPGPGPGPGPGPGPGPGPGPGPGPGPGPGPGPGPGPGPGP-NH2 (also called glycine/proline repeat polymer; source: synthetic peptide (solid-phase peptide synthesis)) [dipeptide repeat polymer GP20] .
Reply: 1190

Query: Do the same for Ac-APAPAPAPAPAPAPAPAPAPAPAPAPAPAPAPAPAPAPAP-NH2 (also called alanine/proline repeat polymer; source: synthetic peptide (solid-phase peptide synthesis)) [dipeptide repeat polymer AP20] please
Reply: 597
